- assay.details: in vitro
- experimental.context: both, human, microsomes, t1/2 (half life)

# structure.smiles.string, units.label, half-life at 8.5 μM
measured = [
    ("N[C@H](CNC(=O)C1(c2ccc(Cl)cc2)CCCC1)c1ccc(C(=O)Nc2ccncc2)cc1", "h", 10.8),
]

Values compiled from paper PMC12016938.
